In this section we review reported GI50 values for a set of molecules.
# Test system: UACC-62

# molecule, GI50 / nM
rows = [
    ("O=C1NC(=S)S/C1=C\\C(Cl)=C\\c1ccc([N+](=O)[O-])cc1", 5750),
    ("O=C(O)CCN1C(=O)/C(=C/C(Cl)=C/c2ccc([N+](=O)[O-])cc2)SC1=S", 1230),
    ("O=C1/C(=C/C(Cl)=C/c2ccc([N+](=O)[O-])cc2)SC(=S)N1c1ccc(O)cc1", 1690),
    ("O=C(O)C(Cc1ccccc1)N1C(=O)/C(=C/C(Cl)=C/c2ccc([N+](=O)[O-])cc2)SC1=S (centres unmarked)", 2000),
    ("O=C1/C(=C/C(Cl)=C/c2ccc([N+](=O)[O-])cc2)SC(=S)N1/N=C\\C(Cl)=C\\c1ccc([N+](=O)[O-])cc1", 13600),
]

----------
In this section we review reported TGI values for a set of molecules.
# System: MDA-MB-231/ATCC
# measurementProtocol: NCI DTP 60 cell line screen, SRB
# testConditions: MDA-MB-231/ATCC (Breast Cancer), 48 h, SRB
property: TGI (µM)

# molecule, property, limitSign, reportedValue
measured = [
    ("O=C(O)CCN1C(=O)/C(=C/C(Cl)=C/c2ccc([N+](=O)[O-])cc2)SC1=S", "TGI", "=", 4.86),
    ("O=C1/C(=C/C(Cl)=C/c2ccc([N+](=O)[O-])cc2)SC(=S)N1/N=C\\C(Cl)=C\\c1ccc([N+](=O)[O-])cc1", "TGI", "=", 35.4),
    ("O=C1/C(=C/C(Cl)=C/c2ccc([N+](=O)[O-])cc2)SC(=S)N1c1ccc(O)cc1", "TGI", "=", 12.2),
    ("O=C1NC(=S)S/C1=C\\C(Cl)=C\\c1ccc([N+](=O)[O-])cc1", "TGI", "=", 28.1),
    ("O=C(O)C(Cc1ccccc1)N1C(=O)/C(=C/C(Cl)=C/c2ccc([N+](=O)[O-])cc2)SC1=S (centres unmarked)", "TGI", ">", 100),
]

----------
# compound, melting point
records = [
    ("O=C(O)CC(C(=O)O)N1C(=O)/C(=C/C(Cl)=C/c2ccc([N+](=O)[O-])cc2)SC1=S (stereo not shown) [Compound 2k]", "220 to 222 °C"),
    ("O=C1/C(=C/C(Cl)=C/c2ccc([N+](=O)[O-])cc2)SC(=S)N1CCS(=O)(=O)O [Compound 2g]", "> 260 °C"),
    ("O=C(NN1C(=O)/C(=C/C(Cl)=C/c2ccc([N+](=O)[O-])cc2)SC1=S)c1csc2c1CCCC2 [Compound 2d]", "> 230 °C"),
    ("O=C(Cc1ccccc1Nc1c(Cl)cccc1Cl)NN1C(=O)/C(=C/C(Cl)=C/c2ccc([N+](=O)[O-])cc2)SC1=S [Compound 2e]", "257 to 258 °C"),
    ("O=C(O)CCC(C(=O)O)N1C(=O)/C(=C/C(Cl)=C/c2ccc([N+](=O)[O-])cc2)SC1=S (stereo not shown) [Compound 2l]", "205 to 207 °C"),
    ("O=C1NC(=O)/C(=C/C(Cl)=C/c2ccc([N+](=O)[O-])cc2)S1 [Compound 2a]", "> 270 °C"),
    ("O=C(O)CCCCCN1C(=O)/C(=C/C(Cl)=C/c2ccc([N+](=O)[O-])cc2)SC1=S [Compound 2i]", "> 220 °C"),
]

----------
In this section we review reported CC50 values for a set of compounds.
# Tested on: RPMI-8226
# measurementProtocol: cells
# testConditions: Homo sapiens, RPMI-8226, 48 h, read-out: LC50

# compound, targetOrTestSystem, CC50
records = [
    ("O=C1NC(=S)S/C1=C\\C(Cl)=C\\c1ccc([N+](=O)[O-])cc1", "RPMI-8226", "> 50 µM"),
    ("O=C1/C(=C/C(Cl)=C/c2ccc([N+](=O)[O-])cc2)SC(=S)N1c1ccc(O)cc1", "RPMI-8226", "> 100 µM"),
    ("O=C(O)C(Cc1ccccc1)N1C(=O)/C(=C/C(Cl)=C/c2ccc([N+](=O)[O-])cc2)SC1=S (centres unmarked)", "RPMI-8226", "> 100 µM"),
    ("O=C(O)CCN1C(=O)/C(=C/C(Cl)=C/c2ccc([N+](=O)[O-])cc2)SC1=S", "RPMI-8226", "> 100 µM"),
    ("O=C1/C(=C/C(Cl)=C/c2ccc([N+](=O)[O-])cc2)SC(=S)N1/N=C\\C(Cl)=C\\c1ccc([N+](=O)[O-])cc1", "RPMI-8226", "> 100 µM"),
]

----------
# Test system: T-47D
# measurementProtocol: cells
# testConditions: Homo sapiens, T47D, 48 h
Under this convention, criterion met denotes GI50 strictly below 2000 nM and criterion not met denotes GI50 at or above 2000 nM.

# compound, qualitativeLabel
data = [
    ("O=C(O)CCN1C(=O)/C(=C/C(Cl)=C/c2ccc([N+](=O)[O-])cc2)SC1=S", "criterion met"),
    ("O=C(O)C(Cc1ccccc1)N1C(=O)/C(=C/C(Cl)=C/c2ccc([N+](=O)[O-])cc2)SC1=S (centres unmarked)", "criterion met"),
    ("O=C1/C(=C/C(Cl)=C/c2ccc([N+](=O)[O-])cc2)SC(=S)N1/N=C\\C(Cl)=C\\c1ccc([N+](=O)[O-])cc1", "criterion not met"),
    ("O=C1NC(=S)S/C1=C\\C(Cl)=C\\c1ccc([N+](=O)[O-])cc1", "criterion not met"),
    ("O=C1/C(=C/C(Cl)=C/c2ccc([N+](=O)[O-])cc2)SC(=S)N1c1ccc(O)cc1", "criterion met"),
]

----------
# System: OVCAR-8
# measurementProtocol: NCI DTP 60 cell line screen, SRB
# testConditions: OVCAR-8 (Ovarian Cancer), 48 h, SRB
In this section we review reported TGI values for a set of molecules.

# molecule, limitSign, TGI (µM)
rows = [
    ("O=C(O)CCN1C(=O)/C(=C/C(Cl)=C/c2ccc([N+](=O)[O-])cc2)SC1=S", "=", 11.5),
    ("O=C1NC(=S)S/C1=C\\C(Cl)=C\\c1ccc([N+](=O)[O-])cc1", "=", 15.6),
    ("O=C(O)C(Cc1ccccc1)N1C(=O)/C(=C/C(Cl)=C/c2ccc([N+](=O)[O-])cc2)SC1=S (centres unmarked)", ">", 100),
    ("O=C1/C(=C/C(Cl)=C/c2ccc([N+](=O)[O-])cc2)SC(=S)N1/N=C\\C(Cl)=C\\c1ccc([N+](=O)[O-])cc1", "=", 4.08),
    ("O=C1/C(=C/C(Cl)=C/c2ccc([N+](=O)[O-])cc2)SC(=S)N1c1ccc(O)cc1", "=", 22.9),
]

----------
# Test system: SF-268
# measurementProtocol: NCI DTP 60 cell line screen, SRB
# testConditions: SF-268 (CNS Cancer), 48 h, SRB
In this section we review reported TGI values for a set of molecules.

# molecule, limitSign, TGI, µM
rows = [
    ("O=C1NC(=S)S/C1=C\\C(Cl)=C\\c1ccc([N+](=O)[O-])cc1", "=", 18.9),
    ("O=C(O)CCN1C(=O)/C(=C/C(Cl)=C/c2ccc([N+](=O)[O-])cc2)SC1=S", "=", 9.74),
    ("O=C(O)C(Cc1ccccc1)N1C(=O)/C(=C/C(Cl)=C/c2ccc([N+](=O)[O-])cc2)SC1=S (centres unmarked)", ">", 100),
    ("O=C1/C(=C/C(Cl)=C/c2ccc([N+](=O)[O-])cc2)SC(=S)N1c1ccc(O)cc1", "=", 34.5),
    ("O=C1/C(=C/C(Cl)=C/c2ccc([N+](=O)[O-])cc2)SC(=S)N1/N=C\\C(Cl)=C\\c1ccc([N+](=O)[O-])cc1", "=", 41.3),
]

----------
# Test system: Ovarian Cancer subpanel
# measurementProtocol: cells
# testConditions: Ovarian Cancer panel mean
In this section we review reported MG_MID, TGI values for a set of molecules.
property: MG_MID, TGI (µM)

# molecule, targetOrTestSystem, reportedValue
records = [
    ("O=C1NC(=S)S/C1=C\\C(Cl)=C\\c1ccc([N+](=O)[O-])cc1", "Ovarian Cancer subpanel", 21.0),
    ("O=C(O)C(Cc1ccccc1)N1C(=O)/C(=C/C(Cl)=C/c2ccc([N+](=O)[O-])cc2)SC1=S (centres unmarked)", "Ovarian Cancer subpanel", 68.6),
    ("O=C1/C(=C/C(Cl)=C/c2ccc([N+](=O)[O-])cc2)SC(=S)N1/N=C\\C(Cl)=C\\c1ccc([N+](=O)[O-])cc1", "Ovarian Cancer subpanel", 36.2),
    ("O=C(O)CCN1C(=O)/C(=C/C(Cl)=C/c2ccc([N+](=O)[O-])cc2)SC1=S", "Ovarian Cancer subpanel", 12.7),
    ("O=C1/C(=C/C(Cl)=C/c2ccc([N+](=O)[O-])cc2)SC(=S)N1c1ccc(O)cc1", "Ovarian Cancer subpanel", 42.5),
]
